# Test system: SK-OV-3 ovarian
# measurement protocol: NCI tumour cell line growth inhibition, 48 h
readout label: GI50

Please review the entries below; each comes with its answer.
Just so you know, measured GI50 for `O=C1C(N2CCN(CCOCCO)CC2)=C(Cl)C(=O)c2ncccc21` came out at > 100 µM

Just so you know, measured GI50 for `O=c1cc(-c2ccccc2)[nH]c2c1CCCC2` came out at 5.11 µM

Attention now turns to another entry.
Just so you know, measured GI50 for `COc1cc(OC)c2c(=O)cc(-c3ccccc3OCc3ccccc3)oc2c1OC` came out at 98 µM

----------
# Test system: KM12 colon
# measurement protocol: NCI tumour cell line growth inhibition, 48 h
readout label: TGI

Please review the entries below; each comes with its answer.
Just so you know, measured TGI for `Oc1ccc(Cl)cc1-c1cc(-c2ccccc2)nc(=S)[nH]1` came out at > 100 µM

Just so you know, measured TGI for `Cc1ccc(N2C(=O)/C(=C/c3ccc(N(CCC#N)CCC#N)cc3)N=C2COc2ccc(Cl)cc2Cl)cc1` came out at > 100 µM

Just so you know, measured TGI for `CCC[CH2][Sn]([CH2]CCC)([CH2]CCC)/[C](=C/[Si](C)(C)c1ccccc1)c1ccc2c(c1)OCO2` came out at 34.1 µM

Just so you know, measured TGI for `CC(C)=Cc1cc(CCC/C(C)=C/Cc2c(O)cc(C)c(C(=O)O)c2O)co1` came out at > 100 µM

Others:
Just so you know, measured TGI for `COc1cc2c3c(n(C)c(=O)c2cc1OC)-c1cc2c(cc1/C3=C\CCCCCBr)OCO2` came out at > 100 µM

Just so you know, measured TGI for `Cc1ccccc1-n1c(=S)[nH]c2c(sc(=O)n2-c2ccccc2C)c1=O` came out at > 100 µM

Just so you know, measured TGI for `O=C(Nc1ccc(-n2cc(-c3ccncc3)c(-c3ccc(O)c(Cl)c3)n2)cc1)c1ccc(Cl)c(C(F)(F)F)c1` came out at > 50 µM

----------
# System: MOLT-4 leukemia
# measurement protocol: NCI tumour cell line growth inhibition, 48 h
Entries and their TGI values follow.

Just so you know, measured TGI for Cc1cn(C2CC(COCc3ccccc3)N(CCO[Si](C)(C)C(C)(C)C)O2)c(=O)[nH]c1=O (stereo unspecified) came out at 32.3 µM

Just so you know, measured TGI for `COc1cc2nc(N3CCC[C@H](NC4=CC(=O)c5ccccc5C4=O)C3)nc(N)c2cc1OC` came out at 5.9 µM

Others:
Just so you know, measured TGI for `CCOC(=O)c1c(-c2ccccc2)[n+](=O)c2cc(F)c(F)cc2n1[O-]` came out at > 100 µM

Just so you know, measured TGI for O=C1OC(=O)C23CSCC12C1C=CC3O1 (stereo unspecified) came out at > 100 µM

Just so you know, measured TGI for `CN1CCN=C1c1nnn(-c2ccc([N+](=O)[O-])cc2)c1-c1ccccc1` came out at > 100 µM

Just so you know, measured TGI for `CCN1CCN(c2cc(C(=O)Nc3cccc(Nc4ccc5c(OC)cccc5n4)c3)cc(C(F)(F)F)c2)CC1` came out at 12.3 µM

Just so you know, measured TGI for `COc1ccc(/C=c2\[nH]c3nc(=O)c(N4CCCCC4)c(N)n3c2=O)cc1` came out at > 100 µM

Just so you know, measured TGI for `COc1cc(Cl)c(CC(=O)c2c[nH]c3ccccc23)cc1OC` came out at > 100 µM

Just so you know, measured TGI for COC(=O)c1c2c(cc3c1CC1(Cc4cc5c(c(C)c4C1)CCC5)C3)CCC2 (stereo unspecified) came out at > 100 µM

Just so you know, measured TGI for `O=c1c2ccccc2nc(N/N=C/c2ccc([N+](=O)[O-])cc2)n1-c1ccccc1` came out at > 100 µM

Just so you know, measured TGI for `COc1cccc(NC(=O)CC(=O)n2nc(-c3ccccc3)c(N=Nc3ccc(Cl)cc3)c2-c2ccccc2)c1` came out at > 59.3 µM

Just so you know, measured TGI for `Cc1ccccc1-n1c(=S)[nH]c2c(sc(=O)n2-c2ccccc2C)c1=O` came out at > 100 µM

Just so you know, measured TGI for CC12CCC(=O)C(O1)C1C(=O)c3ccc4c(ccc5ccccc54)c3C(=O)C12 (stereo unspecified) came out at 17.5 µM

Just so you know, measured TGI for CC(c1ccccc1)n1cncc1C(=O)NN1CCN(C)CC1 (stereo unspecified) came out at > 10 µM

Just so you know, measured TGI for `Cc1cc(N2CCCCC2)nc2ccc(Cc3ccc4nc(N5CCCCC5)cc(C)c4c3)cc12` came out at > 100 µM

Just so you know, measured TGI for COc1ccc(C2NN=C3c4ccccc4CCC32)cc1 (stereo unspecified) came out at > 100 µM

Just so you know, measured TGI for CCOC(=O)C1CCC(=O)N1C(=O)c1cccc(Cl)c1 (stereo unspecified) came out at > 100 µM

Just so you know, measured TGI for `Oc1c(Cl)cc2cc1-c1cc(cc(Cl)c1O)CCc1c(cc(Cl)c(O)c1Cl)-c1cc(Cl)c(c(Cl)c1O)/C=C\2` came out at > 50 µM

Just so you know, measured TGI for `COc1c(OC)c(OC)c2c(=O)cc(-c3ccc(OC(C)C)cc3)oc2c1OC` came out at 23.8 µM

Just so you know, measured TGI for `CC(=O)c1c[nH]c2ccc(-c3ccnc(Nc4ccc(NC(=O)C5CCCC5)c(CN5CCOCC5)c4)n3)cc12` came out at 0.474 µM

Just so you know, measured TGI for COC(=O)/C(C#N)=C1\CCC(OC)N1C (stereo unspecified) came out at > 100 µM

Just so you know, measured TGI for `C=C(Br)C[N+]12CN3CN(CN(C3)C1)C2` came out at > 100 µM
